Origin of the recorded values: patent US9409952B2

experiment: Metabolic stability in human hepatic microsome; type: in vitro ADME; details: microsomes, pH 7.4; human hepatic microsome, NADPH(+); read-out: CL NADPH(+)
Positions of bridges follow the written chain, without caps; N, C: chain ends. Non-standard residues stand in square brackets, D forms with d. Residues, ends and D or L forms follow the SMILES beside them. ξ: configuration not given here. *: point of attachment. NMeF = CN[C@@H](Cc1ccccc1)C(=O)O; NMeI = CC[C@H](C)[C@H](NC)C(=O)O; NMeL = CN[C@@H](CC(C)C)C(=O)O; Thr(3ξ) = CC(O)[C@H](N)C(=O)O; NMeA = CN[C@@H](C)C(=O)O; Piperidide = C1CCN(*)CC1; dNMeA = CN[C@H](C)C(=O)O; NPrGly = CCCNCC(=O)O; Sar = CNCC(=O)O; tBu = CC(C)(C)*
outcome-measure: microsomal CLint at 1 uM (µL/min/mg)
# number only, unit µL/min/mg dropped from output

Q: I am curious: what microsomal CLint at 1 uM value has been reported for CC[C@H](C)[C@@H]1NC(=O)[C@H](CC(C)C)N(C)C(=O)[C@H](Cc2ccccc2)NC(=O)[C@@H](C)N(C)C(=O)C[C@@H](C(=O)N2CCCCC2)NC(=O)[C@H](Cc2ccccc2)NC(=O)[C@H](C(C)O)NC(=O)[C@@H]2CCCN2C(=O)[C@H](CC(C)C)N(C)C(=O)CNC(=O)[C@H](CC(C)C)N(C)C1=O (stereo partly drawn) [DP-162] ([dNMeA]F[NMeL]I[NMeL]G[NMeL]P[Thr(3ξ)]FD-Piperidide; lactam N-11) ?
A: 90

More entries:
Q: # microsomal CLint at 1 uM lookup, item CCCN1CC(=O)N[C@@H](CC(C)C)C(=O)N[C@@H]([C@@H](C)O)C(=O)N(C)CC(=O)N(C)[C@@H](Cc2ccccc2)C(=O)N[C@@H](C)C(=O)N(C)[C@@H](Cc2ccccc2)C(=O)N(C)[C@@H](CC(C)C)C(=O)N(C)[C@@H]([C@@H](C)CC)C(=O)N(C)[C@@H](CC(C)C)C(=O)N[C@H](C(=O)N2CCCCC2)CC1=O [DP-544] ([NPrGly]LT[Sar][NMeF]A[NMeF][NMeL][NMeI][NMeL]D-Piperidide; lactam N-11)
A: 45

Q: Try the compound CC(C)C[C@H]1C(=O)N[C@@H](COC(C)(C)C)C(=O)N[C@H](C(=O)N2CCCCC2)CC(=O)N(C)[C@@H](C)C(=O)N(C)[C@@H](C)C(=O)N(C)[C@@H](Cc2ccccc2)C(=O)N(C)[C@@H](CC(C)C)C(=O)N[C@@H]([C@@H](C)O)C(=O)N(C)[C@@H](C)C(=O)N1C [DP-267] ([NMeA][NMeA][NMeF][NMeL]T[NMeA][NMeL]S(tBu)D-Piperidide; lactam N-9)
A: 75

* * *

assay: Metabolic stability in human hepatic microsome; type: in vitro ADME; settings: human, microsomes, pH 7.4, CL NADPH(+)
Positions of bridges follow the written chain, without caps; N, C: chain ends. Non-standard residues stand in square brackets, D forms with d. Residues, ends and D or L forms follow the SMILES beside them. *: point of attachment. NMeF = CN[C@@H](Cc1ccccc1)C(=O)O; NMeI = CC[C@H](C)[C@H](NC)C(=O)O; NMeL = CN[C@@H](CC(C)C)C(=O)O; NMeA = CN[C@@H](C)C(=O)O; Piperidide = C1CCN(*)CC1; dNMeA = CN[C@H](C)C(=O)O; tBu = CC(C)(C)*
outcome-measure: microsomal CLint at 1 uM (µL/min/mg)
Answer with a number only, understood to be in µL/min/mg.

Q: Value lookup for microsomal CLint at 1 uM; key = CC[C@H](C)[C@@H]1NC(=O)[C@H](C)N(C)C(=O)C[C@@H](C(=O)N(C)[C@@H](Cc2ccccc2)C(=O)N[C@@H](C)C(=O)N2CCCCC2)NC(=O)[C@H](CC(C)C)N(C)C(=O)[C@H](CC(C)C)NC(=O)[C@@H]2CCCN2C(=O)CNC(=O)[C@H](CC(C)C)N(C)C(=O)[C@H](Cc2ccccc2)N(C)C(=O)[C@H](Cc2ccccc2)NC(=O)[C@H]([C@@H](C)O)NC1=O [DP-280] ([NMeA]ITF[NMeF][NMeL]GPL[NMeL]D[NMeF]A-Piperidide; lactam N-11)
A: 28

Here is the next item to consider.
Q: Give its microsomal CLint at 1 uM value. Item: CC[C@H](C)[C@H]1C(=O)N(C)[C@@H](CC(C)C)C(=O)N[C@H](C(=O)N2CCCCC2)CC(=O)N(C)[C@H](C)C(=O)N(C)[C@@H](CC(C)C)C(=O)N[C@@H](CC(C)C)C(=O)N(C)[C@@H](Cc2ccccc2)C(=O)N[C@@H](COC(C)(C)C)C(=O)N(C)[C@@H](Cc2ccccc2)C(=O)N[C@@H]([C@@H](C)O)C(=O)N(C)[C@@H](C)C(=O)N1C [DP-49] ([dNMeA][NMeL]L[NMeF]S(tBu)[NMeF]T[NMeA][NMeI][NMeL]D-Piperidide; lactam N-11)
A: 51
